- Test system: LOX IMVI
- testProtocol: NCI tumour cell line growth inhibition, 48 h
The source made the active and inactive calls. Cut-off read from the data, not from the text of the source: active = GI50 up to about 1.1 µM and inactive = higher.
Let's look at some molecules and their measured GI50.
measure: GI50

{"molecule": "NC(Cc1ccccc1)C(=O)NC(Cc1ccccc1)NC(=O)C(Cc1c[nH]c2ccccc12)C(=O)O (stereo not given)", "valueMeasured": "> 100 µM (inactive)"}
{"molecule": "COC(=O)CCC(=O)CC(=O)C(=O)Nc1c(Cl)cc([N+](=O)[O-])cc1Cl", "valueMeasured": "52.1 µM (inactive)"}
{"molecule": "O=NN(CC1(O)OCC(O)C(O)C1O)C(Cc1c[nH]c2ccccc12)C(=O)O (stereo not given)", "valueMeasured": "> 100 µM (inactive)"}
{"molecule": "Cc1cc2nc(C#N)c(N3CCN(c4ccc([N+](=O)[O-])cc4)CC3)nc2cc1C", "valueMeasured": "> 100 µM (inactive)"}
{"molecule": "O=C1c2cccc(O)c2C(=O)c2c(OC3OC(CO)C(O)C(O)C3O)cccc21 (stereo not given)", "valueMeasured": "37.5 µM (inactive)"}

* * *

- Tested on: LXFL 529
- testProtocol: NCI tumour cell line growth inhibition, 48 h
The source made the active and inactive calls. Rule as the data show it: active = GI50 up to about 1.1 µM and inactive = higher.
Let's look at some compounds and their measured GI50.

{"compound": "CC(C)(C)[Si](C)(C)O/N=C\\c1ccc(O[Si](C)(C)C(C)(C)C)cc1", "experimentalSystem": "LXFL 529", "GI50": "84.9 µM (inactive)"}
{"compound": "CCCC(S(=O)(=O)c1ccccc1)S(=O)(=O)c1ccccc1", "experimentalSystem": "LXFL 529", "GI50": "> 100 µM (inactive)"}
{"compound": "CC[C@@]1(O)C(=O)OCc2c1c(Cl)c1n(c2=O)Cc2cc3ccccc3nc2-1", "experimentalSystem": "LXFL 529", "GI50": "8.15 µM (inactive)"}
{"compound": "O=C1C(Cl)N(c2ccc([N+](=O)[O-])cc2)C1c1c[nH]c2ccccc12 (centres undefined)", "experimentalSystem": "LXFL 529", "GI50": "36.2 µM (inactive)"}
{"compound": "COc1cc(OC)c(C2CC=Cc3c(OC)cc(OC)c(OC)c32)cc1OC (centres undefined)", "experimentalSystem": "LXFL 529", "GI50": "> 100 µM (inactive)"}
{"compound": "N#CCC(=O)N1CCCCCCC1", "experimentalSystem": "LXFL 529", "GI50": "77.8 µM (inactive)"}
{"compound": "CC1(Cl)CC2C(CC1Sc1nnnn1-c1ccccc1)C2(C)C (centres undefined)", "experimentalSystem": "LXFL 529", "GI50": "60.3 µM (inactive)"}
{"compound": "c1ccc([P+](Cc2csnn2)(c2ccccc2)c2ccccc2)cc1", "experimentalSystem": "LXFL 529", "GI50": "> 100 µM (inactive)"}
{"compound": "O=c1c(-c2ccccc2)c2oc(c1-c1ccccc1)CSCc1cccc(c1)CSC2", "experimentalSystem": "LXFL 529", "GI50": "39 µM (inactive)"}
{"compound": "Cc1nc2c(n1C)C(=O)c1nc(CBr)[nH]c(=O)c1C2=O", "experimentalSystem": "LXFL 529", "GI50": "> 100 µM (inactive)"}
{"compound": "C[N+](C)(C)CC(=O)N/N=C(/C=C/c1ccccc1)CC1OC(=O)c2ccccc21 (centres undefined)", "experimentalSystem": "LXFL 529", "GI50": "> 100 µM (inactive)"}
{"compound": "COc1ccccc1NC(=O)C(=O)C(C(=O)c1ccccc1F)C1OC(=O)c2ccccc21 (centres undefined)", "experimentalSystem": "LXFL 529", "GI50": "24.9 µM (inactive)"}
{"compound": "CCCCC1(C)C=C/C(=C2/C(=O)O/C(=C\\C(=O)O)C2=O)O1 (centres undefined)", "experimentalSystem": "LXFL 529", "GI50": "> 100 µM (inactive)"}
{"compound": "COc1c(O)c(C=O)c2c(O)c(-c3c(C)cc4c(C(C)C)c(OC)c(O)c(C=O)c4c3O)c(C)cc2c1C(C)C", "experimentalSystem": "LXFL 529", "GI50": "3.96 µM (inactive)"}
